Values compiled from ChEMBL document CHEMBL2157917.

target: Voltage-gated inwardly rectifying potassium channel KCNH2 (Homo sapiens); assay: Inhibition of human ERG expressed in HEK293 cells by voltage-clamp method; format: cell-based
pIC50: −log10 of the molar value.
Measure name: pIC50

>>> reading("COc1cc(Cl)c(-c2nc(SCC(=O)N(C)C)nc3[nH]cc(C#N)c23)cc1OC")
"< 4.52"
>>> reading("CCN(CC)CCOc1cc(-c2nc(SCC(=O)NC)nc3[nH]cc(C#N)c23)c(Cl)cc1Cl")
4.75
>>> reading("COc1cc(Cl)c(-c2nc(SCC(=O)N(C)C)nc3[nH]cc(C#N)c23)cc1O")
"< 4.52"

* * *

test: AUC (0 to 2 hrs ) in Balb-C mouse plasma at 5 mg/kg, po; assay type: ADME, organism-based; parameters: time < 2 hr, dose 5 mg/kg, route oral
Measure name: AUC(0-t) at 2 h (ng·h/mL)

>>> reading("COc1cc(Cl)c(-c2nc(SCC(=O)N(C)C)nc3[nH]cc(C#N)c23)cc1O")
16

* * *

experiment: AUC (0 to infinity) in Balb-C mouse kidney at 5 mg/kg, po; format: ADME, organism-based; parameters: time infinity, dose 5 mg/kg, route oral
Measure name: AUC(0-inf) (ng·h/mL)

>>> reading("COc1cc(Cl)c(-c2nc(SCC(=O)N(C)C)nc3[nH]cc(C#N)c23)cc1OC")
6920

* * *

assay: Half life in Balb-C mouse kidney at 5 mg/kg, po; format: ADME, organism-based; design: dose 5 mg/kg, route oral
Measure name: half-life (h)

>>> reading("COc1cc(Cl)c(-c2nc(SCC(=O)N(C)C)nc3[nH]cc(C#N)c23)cc1OC")
1.2

* * *

test: Binding affinity to hexa His-tagged HSP90 (9-236 aminoacids) by SPR assay
Assign labels as follows, please: Fulfilled for Kd below 3 µM; Not fulfilled for Kd equal to or exceeding 3 µM.

>>> answer_label("CSc1nc(-c2ccc(C#N)cc2)c2cc[nH]c2n1")
"Not fulfilled"
>>> answer_label("CCc1nc(-c2ccc(F)cc2C)c2c(C#N)c[nH]c2n1")
"Fulfilled"
>>> answer_label("CNc1nc(-c2ccc(F)cc2C)c2c(C#N)c[nH]c2n1")
"Not fulfilled"
>>> answer_label("CSc1nc(-c2ccc(C)cc2C)c2c(C(F)(F)F)c[nH]c2n1")
"Not fulfilled"
>>> answer_label("CSc1nc(-c2ccc(C)cc2C)c2c(C3CC3)c[nH]c2n1")
"Not fulfilled"
>>> answer_label("CSc1nc(-c2ccc(C#N)cc2)c2nc[nH]c2n1")
"Not fulfilled"
>>> answer_label("CSc1nc(-c2ccc(C)cc2C)c2c(C#N)n[nH]c2n1")
"Not fulfilled"
>>> answer_label("CSc1nc(-c2ccc(C)cc2C)c2cc[nH]c2n1")
"Not fulfilled"
>>> answer_label("CSc1nc(-c2ccc(C)cc2C)c2c(C)c[nH]c2n1")
"Not fulfilled"
>>> answer_label("COc1nc(-c2ccc(F)cc2C)c2c(C#N)c[nH]c2n1")
"Fulfilled"
>>> answer_label("CSc1nc(-c2ccc(C#N)cc2)c2c(C#N)c[nH]c2n1")
"Fulfilled"
>>> answer_label("CSc1nc(-c2ccc(F)cc2C)c2c(C(N)=O)c[nH]c2n1")
"Not fulfilled"
>>> answer_label("CSc1nc(-c2ccc(C)cc2C)c2c(Br)c[nH]c2n1")
"Not fulfilled"
>>> answer_label("CSc1nc(-c2ccc(F)cc2C)c2cc[nH]c2n1")
"Not fulfilled"
>>> answer_label("CSc1nc(-c2ccc(F)cc2C)c2nc[nH]c2n1")
"Fulfilled"
>>> answer_label("CSc1nc(-c2ccc(F)cc2C)c2c(C#N)c[nH]c2n1")
"Fulfilled"
>>> answer_label("CSc1nc(-c2ccc(Cl)cc2C)c2nc[nH]c2n1")
"Not fulfilled"
>>> answer_label("Cc1ccc(-c2ncnc3[nH]cc(C#N)c23)c(C)c1")
"Fulfilled"

* * *

Here's a batch of compounds along with measured pKi for Heat shock protein HSP 90-beta (Homo sapiens, UniProt P08238).
pKi: −log10 of the molar value.
Measure name: pKi

>>> reading("COc1cc(Cl)c(-c2nc(SC)nc3[nH]cc(C#N)c23)cc1OCCN1CC[C@H](F)C1")
8.52
>>> reading("COc1cc(Cl)c(-c2nc(SCC(=O)NC(C)C)nc3[nH]cc(C#N)c23)cc1O")
8.52
>>> reading("CSc1nc(-c2ccc(Cl)cc2C)c2nc[nH]c2n1")
6.18
>>> reading("CCN(CC)CCOc1nc(-c2cc(OC)c(Cl)cc2Cl)c2c(C#N)c[nH]c2n1")
7.21
>>> reading("CCc1nc(-c2ccc(F)cc2C)c2c(C#N)c[nH]c2n1")
5.76
>>> reading("CCN(CC)CCOc1cc(-c2nc(SC)nc3[nH]cc(C#N)c23)c(Cl)cc1Cl")
8.70

* * *

// reported pIC50 for each item listed
biological target: Voltage-gated inwardly rectifying potassium channel KCNH2 (Homo sapiens, UniProt Q12809); assay: Displacement of [3H]-dofetilide from human ERG
Sequence (Q12809 whole entry): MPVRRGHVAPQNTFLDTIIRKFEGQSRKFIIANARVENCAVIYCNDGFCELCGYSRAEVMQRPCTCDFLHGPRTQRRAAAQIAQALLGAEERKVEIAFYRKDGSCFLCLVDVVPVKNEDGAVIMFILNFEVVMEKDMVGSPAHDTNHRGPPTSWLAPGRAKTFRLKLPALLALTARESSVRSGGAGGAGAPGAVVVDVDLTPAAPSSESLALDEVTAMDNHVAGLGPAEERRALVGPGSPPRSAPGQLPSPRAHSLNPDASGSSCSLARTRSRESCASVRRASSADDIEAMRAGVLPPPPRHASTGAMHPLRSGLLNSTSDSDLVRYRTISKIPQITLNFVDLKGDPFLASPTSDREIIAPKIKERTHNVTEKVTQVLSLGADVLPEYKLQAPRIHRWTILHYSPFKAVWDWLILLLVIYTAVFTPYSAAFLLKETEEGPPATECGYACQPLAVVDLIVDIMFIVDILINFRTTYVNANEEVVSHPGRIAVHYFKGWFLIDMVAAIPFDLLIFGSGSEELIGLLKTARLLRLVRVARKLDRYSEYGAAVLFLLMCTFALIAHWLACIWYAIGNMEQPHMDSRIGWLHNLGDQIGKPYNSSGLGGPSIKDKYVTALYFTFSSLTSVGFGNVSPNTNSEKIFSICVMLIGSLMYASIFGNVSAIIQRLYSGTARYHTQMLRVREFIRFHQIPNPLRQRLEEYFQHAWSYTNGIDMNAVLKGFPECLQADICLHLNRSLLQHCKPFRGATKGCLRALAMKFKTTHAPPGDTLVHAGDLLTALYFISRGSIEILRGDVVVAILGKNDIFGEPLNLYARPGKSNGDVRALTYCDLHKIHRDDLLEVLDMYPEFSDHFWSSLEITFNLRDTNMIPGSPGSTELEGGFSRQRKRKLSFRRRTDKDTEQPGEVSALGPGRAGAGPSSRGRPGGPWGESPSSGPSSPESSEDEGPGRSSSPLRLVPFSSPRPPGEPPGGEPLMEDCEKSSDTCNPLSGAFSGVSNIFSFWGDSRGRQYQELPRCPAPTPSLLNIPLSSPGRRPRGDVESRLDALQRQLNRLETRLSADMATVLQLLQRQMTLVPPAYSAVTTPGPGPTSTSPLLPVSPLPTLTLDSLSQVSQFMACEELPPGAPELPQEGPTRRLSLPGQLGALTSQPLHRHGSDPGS
pIC50: −log10 of the molar value.
Measure name: pIC50

>>> reading("COc1cc(Cl)c(-c2nc(SCC(=O)N(C)C)nc3[nH]cc(C#N)c23)cc1O")
"< 4.52"
>>> reading("COc1cc(Cl)c(-c2nc(SCC(=O)N(C)C)nc3[nH]cc(C#N)c23)cc1OC")
"< 4.52"
>>> reading("CCN(CC)CCOc1cc(-c2nc(SCC(=O)NC)nc3[nH]cc(C#N)c23)c(Cl)cc1Cl")
5.50

* * *

assay: AUC (0 to infinity) in Balb-C mouse plasma at 5 mg/kg, po; format: ADME, organism-based; design: time infinity, dose 5 mg/kg, route oral
Measure name: AUC(0-inf) (ng·h/mL)

>>> reading("COc1cc(Cl)c(-c2nc(SCC(=O)N(C)C)nc3[nH]cc(C#N)c23)cc1OC")
297

* * *

The entries below are paired with their reported pKi.
molecular target: Heat shock protein HSP 90-beta (Homo sapiens)
Sequence (P08238 whole entry): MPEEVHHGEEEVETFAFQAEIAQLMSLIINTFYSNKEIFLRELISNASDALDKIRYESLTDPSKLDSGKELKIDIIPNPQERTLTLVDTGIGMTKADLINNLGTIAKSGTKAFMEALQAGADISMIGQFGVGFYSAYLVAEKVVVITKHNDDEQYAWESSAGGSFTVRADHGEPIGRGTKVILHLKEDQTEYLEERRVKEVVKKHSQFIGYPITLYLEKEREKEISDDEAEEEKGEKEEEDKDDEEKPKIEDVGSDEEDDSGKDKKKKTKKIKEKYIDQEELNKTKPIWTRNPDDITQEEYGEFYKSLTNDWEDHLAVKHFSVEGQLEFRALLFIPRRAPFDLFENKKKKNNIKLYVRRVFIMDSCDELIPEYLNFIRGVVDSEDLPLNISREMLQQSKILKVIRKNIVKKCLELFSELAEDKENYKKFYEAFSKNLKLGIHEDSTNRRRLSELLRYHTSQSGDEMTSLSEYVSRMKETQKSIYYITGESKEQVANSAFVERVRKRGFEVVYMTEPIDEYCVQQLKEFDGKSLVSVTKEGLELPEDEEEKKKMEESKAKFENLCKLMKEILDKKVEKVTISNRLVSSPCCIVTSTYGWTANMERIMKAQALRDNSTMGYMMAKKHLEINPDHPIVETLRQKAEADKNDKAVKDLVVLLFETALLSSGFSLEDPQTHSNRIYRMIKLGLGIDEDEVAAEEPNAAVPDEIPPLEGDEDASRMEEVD
pKi: −log10 of the molar value.
Measure name: pKi

>>> reading("Cc1ccc(-c2ncnc3[nH]cc(C#N)c23)c(C)c1")
5.55
>>> reading("COc1cc(Cl)c(-c2nc(SCC(=O)NCCF)nc3[nH]cc(C#N)c23)cc1OC")
8.30
>>> reading("COc1cc(Cl)c(-c2nc(SCC(=O)NCCF)nc3[nH]cc(C#N)c23)cc1O")
8.70
>>> reading("CSc1nc(-c2ccc(C#N)cc2)c2c(C#N)c[nH]c2n1")
6.69

* * *

assay: Ratio of drug level in muscle to plasma of Balb-C mouse at 5 mg/kg, po; type: ADME, organism-based; design: dose 5 mg/kg, route oral
Measure name: Kp

>>> reading("COc1cc(Cl)c(-c2nc(SCC(=O)N(C)C)nc3[nH]cc(C#N)c23)cc1OC")
0.8

* * *

assay: AUC (0 to infinity) in Balb-C mouse muscle at 5 mg/kg, po; format: ADME, organism-based, Muscle tissue; design: time infinity, dose 5 mg/kg, route oral
Measure name: AUC(0-inf) (ng·h/mL)

>>> reading("COc1cc(Cl)c(-c2nc(SCC(=O)N(C)C)nc3[nH]cc(C#N)c23)cc1OC")
231

* * *

tested on: UGT; test: Intrinsic clearance in human liver microsomes assessed as UGT-mediated glucuronidation after 30 mins by LC-MS/MS analysis; type: ADME, Microsome; conditions: read-out: CLH
Entries and their microsomal CLint values follow.
Measure name: microsomal CLint (µL/min/mg)

>>> reading("COc1cc(Cl)c(-c2nc(SCC(=O)N(C)C)nc3[nH]cc(C#N)c23)cc1O")
73
>>> reading("COc1cc(Cl)c(-c2nc(SCC(=O)N(C)C)nc3[nH]cc(C#N)c23)cc1OC")
4

* * *

Listed here: items and their measured Tmax.
assay: Tmax in Balb-C mouse kidney at 5 mg/kg, po; assay type: ADME, organism-based; parameters: dose 5 mg/kg, route oral
Measure name: Tmax (min)

>>> reading("COc1cc(Cl)c(-c2nc(SCC(=O)N(C)C)nc3[nH]cc(C#N)c23)cc1O")
30
>>> reading("COc1cc(Cl)c(-c2nc(SCC(=O)N(C)C)nc3[nH]cc(C#N)c23)cc1OC")
15

* * *

experiment: Half life in Balb-C mouse muscle at 5 mg/kg, po; assay type: ADME, organism-based, Muscle tissue; set-up: dose 5 mg/kg, route oral
Measure name: half-life (h)

>>> reading("COc1cc(Cl)c(-c2nc(SCC(=O)N(C)C)nc3[nH]cc(C#N)c23)cc1OC")
2.4

* * *

assay: Ratio of drug level in kidney to plasma of Balb-C mouse at 5 mg/kg, po; assay type: ADME, organism-based; design: dose 5 mg/kg, route oral
Measure name: Kp

>>> reading("COc1cc(Cl)c(-c2nc(SCC(=O)N(C)C)nc3[nH]cc(C#N)c23)cc1OC")
23.3
>>> reading("COc1cc(Cl)c(-c2nc(SCC(=O)N(C)C)nc3[nH]cc(C#N)c23)cc1O")
2.6
